- SUBJECT_OF_TEST: human recombinant wild-type ALK kinase domain (amino acids 1093-1411) (Homo sapiens)
- Construct: ALK kinase domain (amino acids 1093-1411)
- ASSAY_DETAILS: ALK enzyme assay 2 (microfluidic mobility shift assay)
pKi: −log10 of the molar value.
QUANTITY_KIND: pKi

COMPOUND	pKi
COc1ccc(F)cc1C(C)Oc1nc(-c2cc(S(C)(=O)=O)cnc2OC)cnc1N (stereo not shown) [Example 102]	8.92
Cc1cc(-c2cnc(N)c(O[C@H](C)c3cc(F)ccc3-n3nccn3)c2)cc(P(C)(C)=O)c1 [Example 114]	8.89

---

pIC50: −log10 of the molar value.
As an illustration, consider measured pIC50 for compounds on EML4-ALK wt v1 in NIH-3T3 cells (Homo sapiens).
QUANTITY_KIND: pIC50

COMPOUND	QUANTITY_KIND	REPORTED_VALUE
COc1ccc(F)cc1C(C)Oc1cc(-c2ccnn2CCO)cnc1N (centres unmarked)	pIC50	6.61

1. C[C@@H](Oc1cc(-c2cnc(CS(C)(=O)=O)s2)cnc1N)c1cc(F)ccc1-n1nccn1
2. CC(Oc1cc(-c2ccnn2C)cnc1N)c1cc(F)ccc1C#N (single isomer, unassigned) [Example 44]
3. CNC(=O)c1ncc(-c2cnc(N)c(O[C@H](C)c3cc(F)ccc3-n3nccn3)c2)cn1
Q: Hey, quick one: sort these by pIC50, low to high? Please respond with the labels ordered as the question requires.
Result: 3, 2, 1
(3: 6.14, 2: 6.39, 1: 8.04)

---

- SUBJECT_OF_TEST: human recombinant wild-type ALK kinase domain (amino acids 1093-1411) (Homo sapiens, UniProt Q9UM73)
- Construct: ALK kinase domain (amino acids 1093-1411)
- Sequence (Q9UM73 1093-1411): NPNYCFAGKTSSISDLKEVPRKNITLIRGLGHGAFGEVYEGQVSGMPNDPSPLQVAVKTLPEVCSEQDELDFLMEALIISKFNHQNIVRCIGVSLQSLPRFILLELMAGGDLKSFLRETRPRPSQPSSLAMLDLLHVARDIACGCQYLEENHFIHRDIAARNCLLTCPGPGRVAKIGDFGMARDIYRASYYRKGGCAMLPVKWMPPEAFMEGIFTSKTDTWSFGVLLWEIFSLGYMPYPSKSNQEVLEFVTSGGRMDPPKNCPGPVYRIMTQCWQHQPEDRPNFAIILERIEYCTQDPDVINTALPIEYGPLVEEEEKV
- ASSAY_DETAILS: ALK enzyme assay 2 (microfluidic mobility shift assay)
QUANTITY_KIND: Ki (nM)

P. CC(Oc1cc(-c2ccnn2C)cnc1N)c1cc(F)cc2cccnc12 (stereo not shown) [Example 51]
Q. C[C@@H](Oc1cc(-c2csc(CO)n2)cnc1N)c1cc(F)ccc1-n1nccn1 [Example 105]
Q: Could you kindly indicate whether P or Q has the higher Ki value? Please indicate the selected item by its label.
Result: P

---

- SUBJECT_OF_TEST: human recombinant wild-type ALK kinase domain (amino acids 1093-1411) (Homo sapiens)
- Construct: ALK kinase domain (amino acids 1093-1411)
- ASSAY_DETAILS: ALK enzyme assay 2 (microfluidic mobility shift assay)
QUANTITY_KIND: Ki (nM)

MOLECULE	REPORTED_VALUE
COc1ccc(F)cc1C(C)Oc1cc(-c2ccc(C(C)N)nc2)cnc1N (centres unmarked) [Example 138]	0.32
COc1cc(C(N)=O)ccc1-c1cnc(N)c(O[C@H](C)c2cc(F)ccc2-n2nccn2)c1 [Example 118]	0.26

1. COc1ccc(F)cc1C(C)Oc1cc(-c2ccc(CO)c(S(C)(=O)=O)c2)cnc1N (centres unmarked) [Example 136]
2. CC(Oc1cc(-c2ccnn2C)cnc1N)c1cc(F)ccc1-c1nccn1C (centres unmarked) [Example 63]
3. Cc1n[nH]c(C)c1-c1cnc(N)c(OC(C)c2cc(F)ccc2-n2cccn2)c1 (centres unmarked) [Example 52]
4. COc1ccc(F)cc1[C@@H](C)Oc1cc(-c2ccnn2C)nnc1N [Example 56]
Q: Hey, quick one: sort these by Ki, low to high? Please respond with the labels ordered as the question requires.
Result: 1, 3, 4, 2
(1: 0.26 nM, 3: 1.1 nM, 4: 6.4 nM, 2: 67 nM)

---

- SUBJECT_OF_TEST: human recombinant wild-type ALK kinase domain (amino acids 1093-1411) (Homo sapiens)
- Construct: ALK kinase domain (amino acids 1093-1411); made in house
- ASSAY_DETAILS: ALK enzyme assay 2 (microfluidic mobility shift assay)
- Format: biochemical
pKi: −log10 of the molar value.
QUANTITY_KIND: pKi

In the examples that follow, each entry is paired with its recorded pKi.
COMPOUND	pKi
CC(Oc1cc(-c2ccnn2C)cnc1N)c1cc(F)ccc1-c1ncco1 (centres unmarked)	8.34
COc1ccc(F)cc1C(C)Oc1cc(-c2c(C)noc2C)cnc1N (centres unmarked)	8.89
CC(Oc1cc(-c2ccnn2C)cnc1N)c1cc(F)ccc1-n1cccn1 (centres unmarked)	8.81

1. COc1ccc(F)cc1C(C)Oc1nc(-c2cn(C)cn2)cnc1N (centres unmarked)
2. CC(Oc1cc(-c2ccnn2C)cnc1N)c1cc(F)ccc1C#N (single isomer, unassigned) [Example 44]
3. CC(Oc1cc(-c2ccnn2C)cnc1N)c1cc(F)ccc1-n1ccnn1 (centres unmarked)
Q: Rank descending by pKi. Please respond with the labels ordered as the question requires.
Result: 1, 2, 3

---

Structures can show the parent of a compound that is named as a salt.
As an illustration, consider measured IC50 for compounds on cMet enzyme (Homo sapiens, UniProt P08581).
Sequence (P08581 25-1390): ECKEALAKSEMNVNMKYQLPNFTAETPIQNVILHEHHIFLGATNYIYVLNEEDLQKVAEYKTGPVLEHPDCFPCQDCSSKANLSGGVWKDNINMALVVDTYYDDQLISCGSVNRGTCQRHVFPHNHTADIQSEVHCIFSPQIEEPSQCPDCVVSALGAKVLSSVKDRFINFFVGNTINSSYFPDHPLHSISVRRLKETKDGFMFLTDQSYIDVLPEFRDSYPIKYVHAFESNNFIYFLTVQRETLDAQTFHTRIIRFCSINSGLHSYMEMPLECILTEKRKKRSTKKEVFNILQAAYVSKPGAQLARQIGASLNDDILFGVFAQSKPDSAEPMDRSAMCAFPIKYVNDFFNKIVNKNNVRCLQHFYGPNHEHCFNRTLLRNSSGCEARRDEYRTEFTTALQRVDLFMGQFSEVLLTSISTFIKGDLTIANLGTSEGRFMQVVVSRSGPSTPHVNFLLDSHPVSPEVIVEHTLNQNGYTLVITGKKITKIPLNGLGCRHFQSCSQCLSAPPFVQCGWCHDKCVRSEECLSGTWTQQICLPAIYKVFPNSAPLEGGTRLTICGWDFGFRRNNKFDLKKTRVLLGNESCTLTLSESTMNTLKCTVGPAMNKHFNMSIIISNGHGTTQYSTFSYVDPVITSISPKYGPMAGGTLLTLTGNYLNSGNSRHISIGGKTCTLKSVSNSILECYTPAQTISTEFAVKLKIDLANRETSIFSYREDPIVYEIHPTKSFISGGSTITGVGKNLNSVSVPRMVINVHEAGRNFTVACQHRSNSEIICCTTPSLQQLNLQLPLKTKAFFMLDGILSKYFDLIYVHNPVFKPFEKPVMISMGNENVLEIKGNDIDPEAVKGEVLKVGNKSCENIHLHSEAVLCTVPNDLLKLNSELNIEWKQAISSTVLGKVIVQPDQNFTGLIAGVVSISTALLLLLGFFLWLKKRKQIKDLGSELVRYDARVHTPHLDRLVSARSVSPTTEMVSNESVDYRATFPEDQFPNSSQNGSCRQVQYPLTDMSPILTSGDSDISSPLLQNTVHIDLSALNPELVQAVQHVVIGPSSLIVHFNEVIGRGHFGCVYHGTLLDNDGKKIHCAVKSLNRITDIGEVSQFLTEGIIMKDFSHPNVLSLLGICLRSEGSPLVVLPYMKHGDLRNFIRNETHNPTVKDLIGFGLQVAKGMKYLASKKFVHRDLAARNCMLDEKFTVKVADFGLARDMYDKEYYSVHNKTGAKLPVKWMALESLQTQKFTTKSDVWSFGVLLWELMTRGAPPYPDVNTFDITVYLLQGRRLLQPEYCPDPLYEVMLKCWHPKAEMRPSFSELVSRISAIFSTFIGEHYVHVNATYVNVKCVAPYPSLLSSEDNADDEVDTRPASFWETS
QUANTITY_KIND: IC50 (µM)

In the examples that follow, each entry is paired with its recorded IC50.
COMPOUND	QUANTITY_KIND	REPORTED_VALUE
Cc1n[nH]cc1-c1cnc(N)c(OC(C)c2cc(F)ccc2C#N)c1 (stereo not shown)	IC50	4.05
COc1ccc(F)cc1C(C)Oc1cc(-c2cncc(S(C)(=O)=O)c2)cnc1N (stereo not shown)	IC50	7.61
Cc1n[nH]c(C)c1-c1cnc(N)c(OC(C)c2cc(F)ccc2-n2nccn2)c1 (stereo not shown)	IC50	13.1
Cc1n[nH]cc1-c1cnc(N)c(OC(C)c2cc(F)ccc2-n2nccn2)c1 (stereo not shown)	IC50	4.5
C[C@@H](Oc1cc(-c2scnc2CO)cnc1N)c1cc(F)ccc1-n1nccn1	IC50	13
COc1ccncc1-c1cnc(N)c(OC(C)c2cc(F)ccc2OC)c1 (stereo not shown)	IC50	5.07
Cc1n[nH]cc1-c1cnc(N)c(OC(C)c2cc(F)ccc2Cl)c1 (stereo not shown)	IC50	4.16
CC(Oc1cc(-c2ccnn2C)cnc1N)c1cc(F)ccc1-n1nccn1 (stereo not shown)	IC50	13

I. Cc1n[nH]cc1-c1cnc(N)c(O[C@H](C)c2cc(F)ccc2C#N)c1
II. COc1ccc(F)cc1[C@@H](C)Oc1cc(-c2cncn2C)cnc1N
Q: Could you kindly indicate whether I or II has the higher IC50 value? Please indicate the selected item by its label.
Result: II

A. COc1ccc(F)cc1C(C)Oc1cc(-c2cnn(C)c2CO)cnc1N (stereo not shown)
B. COc1ccc(F)cc1C(C)Oc1cc(-c2ccnn2C)cnc1N (stereo not shown) [Example 43, monohydrochloride]
Q: From the items above, decide which of A and B has the lower IC50 reading. Please indicate the selected item by its label.
Result: B
(B: 5.09 µM, A: 8.42 µM)

---

pIC50: −log10 of the molar value. Counter-ions that a name gives are not always drawn.
As an illustration, consider measured pIC50 for compounds on EML4-ALK wt v1 in NIH-3T3 cells (Homo sapiens, UniProt Q9UM73).
Sequence (Q9UM73 with tags, fused parts or gaps): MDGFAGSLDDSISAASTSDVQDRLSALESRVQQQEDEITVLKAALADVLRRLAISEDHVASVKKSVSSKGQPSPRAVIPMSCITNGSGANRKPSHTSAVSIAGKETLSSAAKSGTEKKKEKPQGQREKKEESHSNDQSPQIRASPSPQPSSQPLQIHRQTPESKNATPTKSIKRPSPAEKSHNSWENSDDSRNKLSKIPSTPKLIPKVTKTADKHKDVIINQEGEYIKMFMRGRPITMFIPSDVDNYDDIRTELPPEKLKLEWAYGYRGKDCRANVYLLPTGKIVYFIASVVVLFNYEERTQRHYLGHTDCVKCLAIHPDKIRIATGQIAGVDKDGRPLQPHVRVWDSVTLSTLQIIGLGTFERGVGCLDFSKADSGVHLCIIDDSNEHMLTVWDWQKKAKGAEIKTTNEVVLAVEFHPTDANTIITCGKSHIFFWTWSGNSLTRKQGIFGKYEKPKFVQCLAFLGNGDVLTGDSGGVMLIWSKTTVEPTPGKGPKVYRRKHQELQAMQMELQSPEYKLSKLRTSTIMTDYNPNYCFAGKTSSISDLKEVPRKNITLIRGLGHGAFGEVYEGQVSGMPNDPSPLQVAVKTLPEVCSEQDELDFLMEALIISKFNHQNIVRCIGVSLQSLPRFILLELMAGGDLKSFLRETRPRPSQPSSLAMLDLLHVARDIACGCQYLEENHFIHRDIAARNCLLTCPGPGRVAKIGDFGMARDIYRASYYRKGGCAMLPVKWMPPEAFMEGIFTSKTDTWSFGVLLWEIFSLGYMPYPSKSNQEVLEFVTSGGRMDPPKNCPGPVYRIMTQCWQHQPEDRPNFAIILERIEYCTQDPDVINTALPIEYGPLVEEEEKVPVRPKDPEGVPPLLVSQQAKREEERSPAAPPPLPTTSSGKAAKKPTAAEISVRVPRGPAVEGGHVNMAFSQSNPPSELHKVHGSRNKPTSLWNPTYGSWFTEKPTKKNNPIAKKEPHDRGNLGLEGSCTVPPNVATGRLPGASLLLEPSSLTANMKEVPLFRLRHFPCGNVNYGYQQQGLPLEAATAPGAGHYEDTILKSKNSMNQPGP
QUANTITY_KIND: pIC50

COMPOUND	pIC50
COc1ncc(F)cc1C(C)Oc1cc(-c2c[nH]nc2C)cnc1N (centres unmarked)	7.23
C[C@@H](Oc1cc(-c2ccnc(N3CC(O)C3)c2F)cnc1N)c1cc(F)ccc1-n1nccn1	8.65
CC(Oc1cc(-c2ccnn2C)cnc1N)c1cc(F)ccc1C#N (centres unmarked) [Example 36, monohydrochloride]	6.06
C[C@@H](Oc1cc(-c2cnn(C3CCNCC3F)c2)cnc1N)c1cc(F)ccc1-n1nccn1 (some centres unmarked)	8.17
C[C@@H](Oc1cc(-c2ccnc(N3CCN(C)CC3)c2F)cnc1N)c1cc(F)ccc1-n1nccn1	8.25
COc1ccc(F)cc1C(C)Oc1cc(-c2cccnc2OCCO)cnc1N (centres unmarked)	7.27

I. C[C@@H](Oc1cc(-c2cccc(S(N)(=O)=O)c2)cnc1N)c1cc(F)ccc1-n1nccn1
II. C[C@@H](Oc1cc(-c2ccc(O)nc2)cnc1N)c1cc(F)ccc1-n1nccn1
Q: Could you kindly indicate whether I or II has the higher pIC50 value? Please indicate the selected item by its label.
Result: I

---

- SUBJECT_OF_TEST: human recombinant wild-type ALK kinase domain (amino acids 1093-1411) (Homo sapiens, UniProt Q9UM73)
- Construct: ALK kinase domain (amino acids 1093-1411); made in house
- ASSAY_DETAILS: ALK enzyme assay 2 (microfluidic mobility shift assay);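 further: kinase reaction run 1 h at room temperature, conversion quantified by electrophoretic separation of fluorescent peptide substrate from phosphorylated product, about 15-20% turnover without inhibitor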
- Assay type: biochemical
QUANTITY_KIND: Ki (nM)

COMPOUND	Ki / nM
COc1ccc(F)cc1[C@@H](C)Oc1cc(-c2c(C)nn(CCO)c2C)cnc1N [Example 53]	0.401
COc1ncccc1-c1cnc(N)c(OC(C)c2cc(F)ccc2N2CCCC2=O)n1 (centres unmarked) [Example 69]	1.1

I. COc1ccc(F)cc1C(C)Oc1cc(-c2sc(CO)nc2C)cnc1N (centres unmarked) [Example 137]
II. COc1ccc(F)cc1C(C)Oc1cc(-c2cccnc2OCCO)cnc1N (centres unmarked) [Example 19]
III. C[C@@H](Oc1cc(-c2cccc(S(N)(=O)=O)c2)cnc1N)c1cc(F)ccc1-n1nccn1 [Example 113]
IV. COc1ccc(F)cc1C(C)Oc1cc(-c2cccn(C)c2=O)cnc1N (centres unmarked) [Example 15]
Q: Rank descending by Ki. Please respond with the labels ordered as the question requires.
Result: IV, II, I, III
